This collection of values is drawn from ChEMBL document CHEMBL1201862.

Test system: A498
Test: NCI tumour cell line growth inhibition, 48 h
The source made the active and inactive calls. Cut-off read from the data, not from the text of the source: active = GI50 up to about 1.1 µM and inactive = higher. Residues, ends and D or L forms follow the SMILES beside them. *: point of attachment. Boc = CC(C)(C)OC(=O)*
Use one of these outcomes when replying: active, inactive

Before answering, review these 5 worked examples.
Oc1c(C2=NNC(c3ccc(Cl)cc3Cl)C2)ccc2ccccc12 (centres undefined)	inactive
O=C1O/C(=C\c2ccc(O)cc2)C(c2ccc(O)c(Cl)c2)=C1Br	inactive
COc1ccc(Oc2ccc3cc4c(cc3c2O)OCO4)c2cc(C)oc12	inactive
O=c1[nH]nc(Cc2ccc(Cl)cc2)n1/N=C/c1cccs1	inactive
CC(C)(C)c1ccc(O)c(CN(Cc2cc(C(C)(C)C)ccc2O)C2CCCCC2)c1	inactive

Input: What call does the record list for CCOC(=O)Cc1c(C)c2ccc(OC(C)=O)c(OC(C)=O)c2oc1=O ?
Output: inactive

Input: Given CCCCCCCCCCCCN1[C@H]2CCC[C@H]2C(O)[C@@H]2CCC[C@@H]21 (some centres undefined) , state the outcome it received in this test.
Output: inactive

Input: // return assay outcome for Cc1nc(C)c(C(=O)NNC(=O)Cc2ccccc2)cc1C(=O)NNC(=O)Cc1ccccc1
Output: inactive

Input: Recorded test call requested for CCCCCCCCCCCCCCCCP(=O)([O-])OCC[N+](C)(C)C
Output: inactive

Input: Give the logged outcome of this assay for the following compound: COc1ccc2c(c1)C(N)=C(c1ccccc1OC)C2=O
Output: inactive

Input: // param item: Cc1ccc(C2=NOC(=O)[C@@H]3CCCC[C@@H]23)cc1 ; yields the recorded call
Output: inactive

Input: What outcome does the record of this test show for COC(=O)c1c[nH]c2nc(N3CCOCC3)nn2c1=O ?
Output: inactive

Input: Which result was noted for this compound in the test: CC(NC(=O)C(NC(=O)OC(C)(C)C)C(C)C)C(=O)N1CCCC1C(=O)NCC(=O)NC(C(=O)NCC(=O)O)C(C)C (centres undefined) (Boc-VAPGVG-OH; configuration not given here)
Output: inactive

Input: What classification did O=c1c(Sc2ncccn2)c(Sc2ncccn2)cnn1CCl end up with in this test?
Output: inactive

Input: Tell me the assay call for c1ccc(OCCSCCCCCCCCCCSCCOc2ccccc2)cc1 please.
Output: inactive

Input: Would you mind telling me which call this test gave COc1ccc2nc3cc(Cl)ccc3c(NCCNCCCNC(=O)c3cc(-c4ccccc4)nc4ccccc34)c2c1 ?
Output: inactive

Input: Hello, I am checking results. What call was entered for COC(=O)C1(OC(=O)Sc2ccccc2)CCN(C)CC1 ?
Output: inactive

Input: Status in this test for CC(=O)c1cc2sc3ccccc3c2[nH]1 ?
Output: inactive

Input: So what was the verdict on CC1(Cl)CC(C)(/C=C/Cl)C(Cl)CC1Cl (centres undefined) in this test?
Output: inactive

Input: Could you kindly confirm the outcome this assay logged for O=[N+]([O-])c1ccc(NS(=O)(=O)C(F)(F)F)cc1 ?
Output: inactive

Input: For this compound, state the assay outcome: CC1CCC2C(C(=O)O[C@H]3C4CCO[C@@H](OC5OC(CO)C(O)C(O)C5O)C4[C@@]4(CO)O[C@@H]34)=CO[C@@H](OC3OC(CO)C(O)C(O)C3O)C12 (some centres undefined)
Output: inactive

Input: Check the results log: what was the call for Oc1ccc(-c2c3c(nc4c2CCc2ccc(Br)cc2-4)-c2cc(Br)ccc2CC3)cc1 ?
Output: inactive

Input: Check the results log: what was the call for O=[N+]([O-])c1cccc(/N=N/c2c(O)c(S(=O)(=O)O)cc3cc(S(=O)(=O)O)ccc23)c1 ?
Output: inactive
